The reader will find reported DC50 values listed item by item below.
- ASSAYED SYSTEM: BRAF G466V (Homo sapiens, UniProt P15056, G466V)
- Construct: expressed in transfected cells
- Sequence (P15056 whole entry G466V): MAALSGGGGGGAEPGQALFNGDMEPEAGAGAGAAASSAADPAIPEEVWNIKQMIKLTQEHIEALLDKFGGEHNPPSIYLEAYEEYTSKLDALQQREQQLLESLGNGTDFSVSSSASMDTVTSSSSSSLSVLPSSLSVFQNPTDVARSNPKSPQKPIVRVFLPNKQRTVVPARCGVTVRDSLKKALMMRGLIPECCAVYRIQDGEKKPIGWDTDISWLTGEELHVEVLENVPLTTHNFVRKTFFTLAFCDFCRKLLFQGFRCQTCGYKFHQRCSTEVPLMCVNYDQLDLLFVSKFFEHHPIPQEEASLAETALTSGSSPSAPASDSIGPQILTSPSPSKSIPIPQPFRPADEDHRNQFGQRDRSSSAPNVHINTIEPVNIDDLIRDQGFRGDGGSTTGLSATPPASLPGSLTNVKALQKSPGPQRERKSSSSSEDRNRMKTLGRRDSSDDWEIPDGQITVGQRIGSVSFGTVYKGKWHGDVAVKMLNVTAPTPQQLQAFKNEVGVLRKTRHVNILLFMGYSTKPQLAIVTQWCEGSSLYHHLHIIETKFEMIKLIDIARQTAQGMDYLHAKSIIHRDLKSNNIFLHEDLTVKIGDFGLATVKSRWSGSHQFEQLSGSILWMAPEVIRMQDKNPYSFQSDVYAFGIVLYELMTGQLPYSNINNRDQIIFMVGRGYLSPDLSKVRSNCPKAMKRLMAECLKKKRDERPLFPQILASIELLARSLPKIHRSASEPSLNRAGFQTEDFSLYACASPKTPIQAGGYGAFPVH
- ASSAY TEXT: Cellular assay of target protein degradation, T-Rex 293 cells stably transfected with HA-BRAF G466V (HA immunofluorescence, high content imaging)
- Type: cell-based
- APPLIED CONDITIONS: half maximal degradation, T-Rex 293 HA-BRAF G466V; read-out: BRaf G466V DC50

COMPOUND	RESULT
O=C1CCC(N2Cc3cc(C4CCN(C[C@H]5C[C@H]6CC[C@@H](C5)N6c5ccc(-c6cnc7[nH]cc(C(=O)c8c(F)ccc(NS(=O)(=O)N9CC[C@@H](F)C9)c8F)c7c6)cc5)CC4)ccc3C2=O)C(=O)N1 (some centres unmarked)	1 to 10 nM

Now look at this one.
In: Request the reported DC50 associated with O=C1CCC(N2Cc3cc(N4CC5(CN(c6ccc(-c7cnc8[nH]cc(C(=O)c9c(F)ccc(NS(=O)(=O)N%10CC[C@@H](F)C%10)c9F)c8c7)cc6)C5)C4)ccc3C2=O)C(=O)N1 (some centres unmarked)
Out: < 1 nM

###

Reported Dmax values follow for various molecules
- ASSAYED SYSTEM: BRAF V600E (Homo sapiens, UniProt P15056, V600E)
- Construct: expressed in transfected cells
- Sequence (P15056 whole entry V600E): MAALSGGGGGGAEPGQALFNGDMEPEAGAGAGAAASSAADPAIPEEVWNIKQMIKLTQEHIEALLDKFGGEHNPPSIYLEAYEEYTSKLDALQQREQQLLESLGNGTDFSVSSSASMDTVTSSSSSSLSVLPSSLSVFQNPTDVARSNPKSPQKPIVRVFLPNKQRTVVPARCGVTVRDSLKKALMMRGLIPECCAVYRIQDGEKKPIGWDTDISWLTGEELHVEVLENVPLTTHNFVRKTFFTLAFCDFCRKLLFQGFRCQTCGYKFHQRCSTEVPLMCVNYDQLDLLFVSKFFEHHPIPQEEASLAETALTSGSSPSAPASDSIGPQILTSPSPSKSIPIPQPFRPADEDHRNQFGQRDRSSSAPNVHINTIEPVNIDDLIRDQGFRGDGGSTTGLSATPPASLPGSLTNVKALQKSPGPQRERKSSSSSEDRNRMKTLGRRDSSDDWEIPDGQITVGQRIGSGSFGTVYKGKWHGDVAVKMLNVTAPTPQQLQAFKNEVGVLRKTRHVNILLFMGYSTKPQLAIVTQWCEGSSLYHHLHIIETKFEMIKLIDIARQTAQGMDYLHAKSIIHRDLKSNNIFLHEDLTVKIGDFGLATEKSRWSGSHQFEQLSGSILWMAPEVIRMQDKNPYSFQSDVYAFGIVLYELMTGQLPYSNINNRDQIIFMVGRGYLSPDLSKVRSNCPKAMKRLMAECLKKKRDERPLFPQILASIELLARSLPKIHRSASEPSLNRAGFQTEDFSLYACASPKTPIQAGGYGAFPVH
- ASSAY TEXT: Cellular assay of target protein degradation, T-Rex 293 cells stably transfected with HA-BRAF_V600E (HA immunofluorescence, high content imaging)
- Format: cell-based
- APPLIED CONDITIONS: maximum degradation observed, T-Rex 293 HA-BRAF V600E

MOLECULE	RECORDED METRIC	RESULT
O=C1CC[C@H](NC(=O)N2CCCc3c(N4CC5(CN(CCc6ccc(-c7cnc8[nH]cc(C(=O)c9c(F)ccc(NS(=O)(=O)N%10CC[C@@H](F)C%10)c9F)c8c7)cc6)C5)C4)ccnc32)C(=O)N1	Dmax	35 to 70%

Turning to the following molecule.
In: I have this molecule here, O=C1CCC(N2Cc3cc(C4CCN(CC5CCN(c6ccc(-c7cnc8[nH]cc(C(=O)c9c(Cl)ccc(NS(=O)(=O)N%10CC[C@@H](F)C%10)c9Cl)c8c7)cc6)CC5)CC4)ccc3C2=O)C(=O)N1 (some centres unmarked) , and I need its recorded Dmax.
Out: 35 to 70%

###

- ASSAYED SYSTEM: BRAF G466V (Homo sapiens, UniProt P15056, G466V)
- Construct: expressed in transfected cells
- ASSAY TEXT: Cellular assay of target protein degradation, T-Rex 293 cells stably transfected with HA-BRAF G466V (HA immunofluorescence, high content imaging)
- Format: cell-based
- APPLIED CONDITIONS: half maximal degradation, T-Rex 293 HA-BRAF G466V; read-out: BRaf G466V DC50
Listing: DC50 of selected molecules

Here are 2 molecules together with their reported answers.
MOLECULE	RESULT
O=C1CCC(N2Cc3cc(C4CCN(CC5CCN(c6ccc(-c7cnc8[nH]cc(C(=O)c9c(F)ccc(NS(=O)(=O)N%10CC[C@@H](F)C%10)c9F)c8c7)cc6)CC5)CC4)c(F)cc3C2=O)C(=O)N1 (stereo partly drawn)	1 to 10 nM
CNc1cc(-c2cnc3[nH]cc(C(=O)c4c(F)ccc(NS(=O)(=O)N5CC[C@@H](F)C5)c4F)c3c2)cc(NC)c1N1CCC(CN2CCC(c3ccc4c(c3)CN(C3CCC(=O)NC3=O)C4=O)CC2)CC1 (stereo partly drawn)	1 to 10 nM

In: Fill in: DC50 of `O=C1CC[C@H](NC(=O)c2ccc(C3CCN(CC4CCN(c5ncc(-c6cnc7[nH]cc(C(=O)c8c(F)ccc(NS(=O)(=O)N9CC[C@@H](F)C9)c8F)c7c6)cn5)CC4)CC3)cc2F)C(=O)N1` is ___
Out: 1 to 10 nM
